# testDetails: self-splicing fitness, log relative to wild type (ln ratio); higher = more splicing; Tetrahymena group I intron in knt gene, E. coli kanamycin selection, DiMSum; sequences stand for … in CUCUCU…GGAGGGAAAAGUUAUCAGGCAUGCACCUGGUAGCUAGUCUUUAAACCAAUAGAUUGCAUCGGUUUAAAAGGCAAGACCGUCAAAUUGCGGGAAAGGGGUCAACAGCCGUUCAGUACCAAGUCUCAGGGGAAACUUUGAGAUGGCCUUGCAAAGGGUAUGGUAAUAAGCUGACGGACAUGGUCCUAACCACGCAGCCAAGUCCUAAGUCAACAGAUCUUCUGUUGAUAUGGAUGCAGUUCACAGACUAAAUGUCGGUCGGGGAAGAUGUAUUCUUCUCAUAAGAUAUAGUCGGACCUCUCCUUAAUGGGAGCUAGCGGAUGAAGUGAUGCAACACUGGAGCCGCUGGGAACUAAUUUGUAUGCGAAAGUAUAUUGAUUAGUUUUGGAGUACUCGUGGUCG;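 note: selection with 25 µg/mL kanamycin versus none on LB agar overnight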
# measurementSetup: 37 °C
Entries and their self-splicing fitness (ln) values follow.
Please reply with the value in numeric form only.

Solved entries:
INSERT INTO results (sequencechain, recordedmeasurement) VALUES
  ('GCCGAGCAAUAUUACGCAAC', -2.07),
  ('GUAUAGCAAUAUUACGUUGG', -1.12),
  ('GUAUAGCAAUAUUACGAUAG', -0.533),
  ('CUGCAGCAAUAUUACGUAGA', -3.35),
  ('AUAGAGCAAUAUUACGAUAG', -1.62);

Query: Look at this sequence and give its reported self-splicing fitness (ln). AGCCAGCAAUAUUACGAACC
Response: -0.0185

Query: Look at this sequence and give its reported self-splicing fitness (ln). UCCUAGCAAUAUUACGAGCA
Response: -1.11

Query: Look at this sequence and give its reported self-splicing fitness (ln). AGCAAGCAAUAUUACGCGCC
Response: -2.46

Query: Look at this sequence and give its reported self-splicing fitness (ln). AACUAGCAAUAUUACGGUUC
Response: -2.94

====

# testDetails: self-splicing fitness, log relative to wild type (ln ratio); higher = more splicing; Tetrahymena group I intron in knt gene, E. coli kanamycin selection, DiMSum; sequences stand for … in CUCUCU…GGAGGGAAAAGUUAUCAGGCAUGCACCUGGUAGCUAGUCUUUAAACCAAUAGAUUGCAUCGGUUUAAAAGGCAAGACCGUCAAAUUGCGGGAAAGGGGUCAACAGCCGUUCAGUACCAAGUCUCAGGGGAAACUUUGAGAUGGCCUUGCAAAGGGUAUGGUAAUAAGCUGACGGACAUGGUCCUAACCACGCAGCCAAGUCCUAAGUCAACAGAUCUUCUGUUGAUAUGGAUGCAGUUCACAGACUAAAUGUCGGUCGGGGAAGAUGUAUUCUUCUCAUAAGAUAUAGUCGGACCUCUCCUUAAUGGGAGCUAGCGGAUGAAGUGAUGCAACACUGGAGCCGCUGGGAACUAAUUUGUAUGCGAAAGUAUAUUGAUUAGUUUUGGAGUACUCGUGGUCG
# measurementSetup: 37 °C
observationType: self-splicing fitness (ln)
Please reply with the value in numeric form only.

Solved entries:
INSERT INTO results (sequencechain, recordedmeasurement) VALUES
  ('GAUUAGCAAUAUUACGCUCA', -0.182),
  ('AACCAGCAAUAUUACGCCUC', -0.399),
  ('AUGCAGCAAUAUUACGGUAG', -2.4);

Moving on to another sequence below.
Query: Look at this sequence and give its reported self-splicing fitness (ln). CAAAAGCAAUAUUACGUCGC
Response: -2.35

====

# testDetails: self-splicing fitness, log relative to wild type (ln ratio); higher = more splicing; Tetrahymena group I intron in knt gene, E. coli kanamycin selection, DiMSum; sequences stand for … in CUCUCU…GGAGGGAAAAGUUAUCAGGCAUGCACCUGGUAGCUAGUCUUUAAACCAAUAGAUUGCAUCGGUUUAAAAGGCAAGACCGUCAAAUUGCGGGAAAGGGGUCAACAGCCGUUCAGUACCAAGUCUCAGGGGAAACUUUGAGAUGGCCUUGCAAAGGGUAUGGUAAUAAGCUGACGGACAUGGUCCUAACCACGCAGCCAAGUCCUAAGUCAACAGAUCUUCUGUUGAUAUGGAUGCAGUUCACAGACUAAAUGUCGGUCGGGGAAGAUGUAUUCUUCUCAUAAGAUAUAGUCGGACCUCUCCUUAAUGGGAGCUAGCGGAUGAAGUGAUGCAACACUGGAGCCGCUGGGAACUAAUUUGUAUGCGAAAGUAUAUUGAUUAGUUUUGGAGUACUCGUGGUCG
# measurementSetup: 30 °C
Label Not fulfilled if self-splicing fitness (ln) falls below -2; label Fulfilled in every other case.

INSERT INTO results (sequencechain, labelvalue) VALUES
  ('CGGUAGCAAUAUUACGGUUG', 'Fulfilled'),
  ('GUGCAGCAAUAUUACGCUCA', 'Fulfilled'),
  ('UCGAAGCAAUAUUACGCAUC', 'Fulfilled'),
  ('UUGUAGCAAUAUUACGCAUC', 'Not fulfilled'),
  ('GACCAGCAAUAUUACGCUGG', 'Not fulfilled'),
  ('ACCGAGCAAUAUUACGCGAA', 'Not fulfilled'),
  ('CCGUAGCAAUAUUACGCAAG', 'Not fulfilled'),
  ('UGGUAGCAAUAUUACGGGAG', 'Not fulfilled'),
  ('UUUUAGCAAUAUUACGACCA', 'Fulfilled'),
  ('UGAAAGCAAUAUUACGUUAU', 'Not fulfilled');

Okay, next one:
Query: Please tell me: is the sequence GUCAAGCAAUAUUACGGACU at or over -2 in terms of self-splicing fitness (ln)?
Response: Not fulfilled

====

# testDetails: self-splicing fitness, log relative to wild type (ln ratio); higher = more splicing; Tetrahymena group I intron in knt gene, E. coli kanamycin selection, DiMSum; sequences stand for … in CUCUCU…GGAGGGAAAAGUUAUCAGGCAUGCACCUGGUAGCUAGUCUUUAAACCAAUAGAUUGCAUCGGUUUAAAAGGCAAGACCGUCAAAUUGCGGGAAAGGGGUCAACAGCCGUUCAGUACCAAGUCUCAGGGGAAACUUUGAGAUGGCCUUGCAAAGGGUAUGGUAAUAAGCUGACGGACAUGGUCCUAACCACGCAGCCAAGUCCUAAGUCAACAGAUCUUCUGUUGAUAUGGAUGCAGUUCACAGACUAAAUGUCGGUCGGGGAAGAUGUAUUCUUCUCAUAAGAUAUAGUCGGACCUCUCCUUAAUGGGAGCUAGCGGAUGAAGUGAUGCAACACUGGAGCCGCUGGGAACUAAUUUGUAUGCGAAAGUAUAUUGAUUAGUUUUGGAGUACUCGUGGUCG
# measurementSetup: 37 °C
Label no if self-splicing fitness (ln) falls below -2; label yes in every other case.

INSERT INTO results (sequencechain, labelvalue) VALUES
  ('CAGAAGCAAUAUUACGCCUG', 'no');

Okay, next one:
Query: Please tell me: is the sequence UCUCAGCAAUAUUACGCACG at or over -2 in terms of self-splicing fitness (ln)?
Response: no

====

# testDetails: self-splicing fitness, log relative to wild type (ln ratio); higher = more splicing; Tetrahymena group I intron in knt gene, E. coli kanamycin selection, DiMSum; sequences stand for … in CUCUCU…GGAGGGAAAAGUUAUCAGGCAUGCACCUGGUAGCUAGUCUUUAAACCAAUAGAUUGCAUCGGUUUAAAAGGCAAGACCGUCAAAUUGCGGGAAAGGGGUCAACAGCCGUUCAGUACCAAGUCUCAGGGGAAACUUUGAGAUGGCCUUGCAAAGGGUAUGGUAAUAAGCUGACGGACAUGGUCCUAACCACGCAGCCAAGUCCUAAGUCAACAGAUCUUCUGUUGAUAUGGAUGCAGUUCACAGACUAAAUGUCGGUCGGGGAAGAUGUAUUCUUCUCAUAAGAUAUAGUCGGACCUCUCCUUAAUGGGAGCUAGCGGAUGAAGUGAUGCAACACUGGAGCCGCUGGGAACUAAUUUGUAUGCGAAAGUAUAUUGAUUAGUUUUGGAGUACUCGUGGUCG
# measurementSetup: 30 °C
observationType: self-splicing fitness (ln)
Please reply with the value in numeric form only.

INSERT INTO measurements (sequencechain, observationtype, recordedmeasurement) VALUES
  ('UUCUAGCAAUAUUACGCUUA', 'self-splicing fitness (ln)', -1.24),
  ('UAUUAGCAAUAUUACGUAUU', 'self-splicing fitness (ln)', -3.62),
  ('CUAUAGCAAUAUUACGUGUU', 'self-splicing fitness (ln)', -3.74),
  ('AGUGAGCAAUAUUACGUGGU', 'self-splicing fitness (ln)', -3.64),
  ('AAGCAGCAAUAUUACGUGGU', 'self-splicing fitness (ln)', -4.16);

Query: Look at this sequence and give its reported self-splicing fitness (ln). UCACAGCAAUAUUACGUAAG
Response: -1.98

Query: Look at this sequence and give its reported self-splicing fitness (ln). CAGAAGCAAUAUUACGCAUA
Response: -3.68

Query: Look at this sequence and give its reported self-splicing fitness (ln). AUUCAGCAAUAUUACGCGGU
Response: -3

Query: Look at this sequence and give its reported self-splicing fitness (ln). GUAAAGCAAUAUUACGUGAA
Response: -1.96

Query: Look at this sequence and give its reported self-splicing fitness (ln). UGGCAGCAAUAUUACGACAA
Response: -0.602

Query: Look at this sequence and give its reported self-splicing fitness (ln). CUCGAGCAAUAUUACGUCGC
Response: -4.4

Query: Look at this sequence and give its reported self-splicing fitness (ln). ACUCAGCAAUAUUACGGAGC
Response: -3.55

Query: Look at this sequence and give its reported self-splicing fitness (ln). CGACAGCAAUAUUACGUAGC
Response: -3.61

Query: Look at this sequence and give its reported self-splicing fitness (ln). ACGAAGCAAUAUUACGAUGC
Response: -3.28

Query: Look at this sequence and give its reported self-splicing fitness (ln). UACAAGCAAUAUUACGAUCA
Response: -0.336

Query: Look at this sequence and give its reported self-splicing fitness (ln). UCUCAGCAAUAUUACGGAAA
Response: -1.45
